- Tested target: purified recombinant human PKD1 (Homo sapiens)
- Test description: radiometric PKD kinase activity assay
- Assay type: biochemical
- Test settings: read-out: IC50 radiometric PKD1
Measurement type: IC50 (nM)

Examples from the recorded data:
| Compound | Tested target | IC50 / nM |
| --- | --- | --- |
| O=C1NCCSc2c1sc1ccc(O)c(I)c21 [kb-NB165-31] | purified recombinant human PKD1 (Homo sapiens) | 110 |
| O=C(CCl)Nc1ccc2sc3c(c2c1)SCCNC3=O [mcf292-09] | purified recombinant human PKD1 (Homo sapiens) | 1500 |
| c1ccc(COc2ccc3sc4c(c3c2)SCCNC4)cc1 [kb-NB165-81] | purified recombinant human PKD1 (Homo sapiens) | 39600 |
| COc1ccc2c(c1)c1c([s+]2[O-])C(=O)NCCS1 (stereo not drawn) [kb-NB184-25] | purified recombinant human PKD1 (Homo sapiens) | 1080 |
| O=C1NCCSc2c1sc1ccc(O)c(Br)c21 [kb-NB184-52] | purified recombinant human PKD1 (Homo sapiens) | 48 |
| COc1ccc2sc3c(c2c1)SCCN(C)C3=O [kb-NB165-16] | purified recombinant human PKD1 (Homo sapiens) | 4570 |

A. O=C1NCCC(=O)c2c1oc1ccc(O)cc21 [kb-NB123-63]
B. O=C1NCCC(O)c2c1oc1ccc(O)cc21 (stereo not drawn) [kb-NB123-89]
C. Nc1ccc2sc3c(c2c1)SCCNC3=O [mcf292-03]
Could you please order the items by IC50, going from the lowest number to the highest? Please list the labels in the order you were asked to rank them.
A, B, C
(A: 850 nM, B: 1230 nM, C: 3170 nM)

1. [N-]=[N+]=Nc1ccc2sc3c(c2c1)SCCNC3=O [mcf292-08]
2. O=C1NCCCc2c1oc1ccc(O)c(F)c21 [kb-NB96-21]
Sorting by IC50 in descending order, would 1 or 2 appear first? Response format: the label of the selected entry.
2

1. O=C1NCCCSc2c1sc1ccc(OCc3ccccc3)cc21 [kb-NB165-89]
2. CN1CCSc2c(sc3ccc(O)cc23)C1=O [kb-NB165-17]
Sorting by IC50 in descending order, would 1 or 2 appear first? Response format: the label of the selected entry.
1

I. Nc1ccc2[nH]c3c(c2c1)CCCNC3=O [kb-NB142-01]
II. O=C1NCCSc2c1sc1cnc(O)nc21 [kmg-NB4-69A]
Sorting by IC50 in descending order, would I or II appear first? Response format: the label of the selected entry.
II

====

melting point listing for selected compounds.

Examples from the recorded data:
| Compound | melting point |
| --- | --- |
| O=C1NCCSc2c1sc1c(O)cccc21 | 269 to 272 °C (dec.) |
| COc1nc(O)c2sc3c(c2n1)SCCNC3=O [kmg-NB5-15A] | 295 °C (dec.) |
| CN1CCSc2c(sc3ccc(O)cc23)C1=O | 265 to 268 °C |
| COc1cccc2c3c(sc12)C(=O)NCCS3 | 220 to 224 °C |

Name the recorded melting point for COC(=O)c1sc2ccc(OC)cc2c1NCCCO .
116 to 120 °C

====

- Tested target: purified recombinant human PKD1 (Homo sapiens, UniProt Q15139)
- Sequence (Q15139 1-912): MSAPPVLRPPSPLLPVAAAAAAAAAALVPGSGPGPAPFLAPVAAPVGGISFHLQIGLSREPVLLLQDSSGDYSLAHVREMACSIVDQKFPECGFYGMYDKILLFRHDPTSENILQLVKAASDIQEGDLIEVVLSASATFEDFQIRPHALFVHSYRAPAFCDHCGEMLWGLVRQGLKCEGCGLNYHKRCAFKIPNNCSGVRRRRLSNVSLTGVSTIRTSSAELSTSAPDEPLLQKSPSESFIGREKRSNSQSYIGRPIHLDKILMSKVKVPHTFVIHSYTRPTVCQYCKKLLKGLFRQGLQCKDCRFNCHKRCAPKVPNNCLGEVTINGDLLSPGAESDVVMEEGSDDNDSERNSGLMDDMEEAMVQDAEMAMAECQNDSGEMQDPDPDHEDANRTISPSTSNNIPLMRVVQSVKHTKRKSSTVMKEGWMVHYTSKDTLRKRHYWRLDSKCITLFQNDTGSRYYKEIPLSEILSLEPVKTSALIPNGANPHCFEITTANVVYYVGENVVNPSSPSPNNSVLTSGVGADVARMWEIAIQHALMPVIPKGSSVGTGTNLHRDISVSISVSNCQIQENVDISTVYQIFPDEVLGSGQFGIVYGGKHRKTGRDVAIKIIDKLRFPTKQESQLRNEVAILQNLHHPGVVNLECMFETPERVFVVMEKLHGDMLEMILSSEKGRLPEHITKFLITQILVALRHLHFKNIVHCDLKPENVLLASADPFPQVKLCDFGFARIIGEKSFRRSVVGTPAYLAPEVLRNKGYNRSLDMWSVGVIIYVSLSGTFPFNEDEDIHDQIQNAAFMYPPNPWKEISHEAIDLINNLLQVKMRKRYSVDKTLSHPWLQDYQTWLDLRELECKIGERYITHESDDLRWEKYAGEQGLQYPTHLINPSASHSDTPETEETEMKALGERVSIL
- Test description: radiometric PKD kinase activity assay
- Format: biochemical
- Test settings: radiometric kinase activity assay, in vitro; read-out: IC50 PKD1
pIC50: −log10 of the molar value.
Measurement type: pIC50

Examples from the recorded data:
| Compound | Number |
| --- | --- |
| COc1ccc2sc3c(c2c1)SCCNC3=O | 7.08 |
| O=C1NCCCSc2c1sc1ccc(O)cc21 | 6.95 |
| COc1ccc2sc3c(c2c1)SCCCNC3=O | 6.71 |
| COc1ncc2sc3c(c2n1)SCCNC3=O | 6.91 |
| O=C1NCCCc2c1oc1ccc(O)cc21 [CID755673, reference compound] | 6.74 |

I. O=C1NCCCc2c1[nH]c1ccc(O)cc21
II. [N-]=[N+]=Nc1ccc2sc3c(c2c1)SCCNC3=O
Could you tell me which of these two has the smaller pIC50 figure? First: I Second: II Response format: the label of the selected entry.
I
(I: 6.89, II: 7.13)

====

melting point listing for selected compounds.
Where a name gives a salt, the structure may show the parent alone.

Examples from the recorded data:
| Compound | melting point |
| --- | --- |
| Oc1ccc2sc3c(c2c1)SCCNC3 | 182 to 184 °C (dec.) |
| O=C1NCCC(O)c2c1oc1ccc(O)cc21 (stereo not shown) | 280 to 282 °C |
| O=C1NCCSc2c1[s+]([O-])c1ccc(O)cc21 (stereo not shown) | 160 to 163 °C (dec.) |
| O=C1NCCSc2c1sc1ccc(O)c(Br)c21 | 235 to 238 °C (dec.) |
| NCCN1CCSc2c(sc3ccc(O)cc23)C1=O | 250 to 254 °C |
| c1ccc(COc2ccc3sc4c(c3c2)SCCNC4)cc1 | 144 to 145 °C |
| O=C1NCCSc2c1sc1cnc(O)nc21 (as salt: hydrochloride) [kmg-NB4-69A] | 335.9 °C (dec.) |
| COc1ccc2c(c1)c1c([s+]2[O-])C(=O)NCCS1 (stereo not shown) | 284 to 287 °C |

Name the recorded melting point for Oc1ccc2oc3c(c2c1)CCCN1CCN=C31 .
230 to 232 °C (dec.)

Name the recorded melting point for CC(=O)Nc1ccc2[nH]c3c(c2c1)CCCNC3=O .
> 300 °C

====

Assay system CAK (CDK7) (Homo sapiens); read-out recorded as pIC50.
Interpret pIC50 as the negative base-10 log of the concentration measured in mol/L.

| Compound smiles | Number |
| --- | --- |
| COc1ccc2sc3c(c2c1)SCCCNC3=O | 5.05 |
| O=C1NCCCSc2c1sc1ccc(O)cc21 | 4.96 |
| COc1ccc2sc3c(c2c1)SCCNC3=O | 4.77 |

Name the recorded pIC50 for O=C1NCCSc2c1sc1ccc(O)cc21 .
4.92

====

melting point listing for selected compounds.

Examples from the recorded data:
| Compound | melting point |
| --- | --- |
| [N-]=[N+]=Nc1ccc2sc3c(c2c1)SCCNC3=O [mcf292-08] | 193 °C (dec.) |
| CC(=O)Oc1ccc2oc3c(c2c1)CCCNC3=O [kb-NB123-36] | 196 to 197 °C |
| O=C(OCc1ccccc1)N1CCCc2c1c(=O)oc1ccc(O)cc21 [kb-NB77-91] | 235 to 237 °C |
| O=C1NCCCSc2c1sc1ccc(OCc3ccccc3)cc21 [kb-NB165-89] | 198 to 199 °C |
| COc1ccc2oc3c(c2c1)CCCN(C)C3=O [kb-NB96-04] | 150 to 151 °C |
| C=CCOc1ccc2oc3c(c2c1Cl)CCCNC3=O [kb-NB96-50] | 192 to 194 °C |
| COc1ccc2sc3c(c2c1)[S+]([O-])CCNC3=O (stereo not shown) [kb-NB184-45] | 215 to 217 °C |
| CC(=O)Nc1ccc2[nH]c3c(c2c1)CCNC3=O [kb-NB123-93] | > 300 °C |

Name the recorded melting point for O=C1NCCCc2c1oc1cc(Cl)c(O)c(Cl)c21 [kb-NB96-43] .
298 to 301 °C

Name the recorded melting point for Cc1ccc(S(=O)(=O)NN=C2CCNC(=O)c3oc4ccc(O)cc4c32)cc1 [kb-NB142-11] .
220 to 224 °C
